src = paper PMC6914384

ASSAYED_SYSTEM: T1, p300 BRP module (bromodomain-RING-PHD), residues 1048-1282 (UniProt Q09472 1048-1282)
T1 sequence: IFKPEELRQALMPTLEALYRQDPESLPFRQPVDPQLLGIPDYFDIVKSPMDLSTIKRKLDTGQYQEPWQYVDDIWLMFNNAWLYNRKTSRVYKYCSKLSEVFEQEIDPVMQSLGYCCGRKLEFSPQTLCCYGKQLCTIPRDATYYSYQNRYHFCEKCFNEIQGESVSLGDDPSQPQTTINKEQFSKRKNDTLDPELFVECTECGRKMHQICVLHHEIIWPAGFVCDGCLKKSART
TEST_SUMMARY: ITC
pKd: −log10 of the molar value. No end group written: not given here.
READOUT_TYPE: pKd

BINDER	MEASURED_VALUE
ARTKQTQRK(Ac)STGGK(Ac)APRKQL [H3 K9acK14ac (1-20) peptide]	3.24
ARTKQTQRKSTGGK(Ac)APRKQL [H3 K14ac (1-20) peptide]	2.75
